// provenance: PubChem BioAssay (NCI)

tested on: UACC-62 melanoma; experiment: NCI tumour cell line growth inhibition, 48 h
In this section, each of the molecules is paired with its reported TGI.
reported property: TGI

INSERT INTO assay_data (molecule, assayed_system, result) VALUES
  ('O=C(O)CN1CCNCCN(CC(=O)O)CC1', 'UACC-62 melanoma', '> 100 µM'),
  ('COc1ccc(-c2cc(-c3ccc(Nc4nc(Nc5ccc(Cl)cc5)nc(Nc5ccc(Cl)cc5)n4)cc3)no2)cc1', 'UACC-62 melanoma', '57.6 µM'),
  ('CC(N)Cc1cccc(C(F)(F)F)c1 (stereo not drawn)', 'UACC-62 melanoma', '> 100 µM'),
  ('CC1=CC2=C(OCO1)C(=O)c1ccccc1C2=O', 'UACC-62 melanoma', '9.89 µM'),
  ('COc1cccc2c1C(=O)C(=O)c1c-2oc(=O)c2cc(C)cc(OC)c12', 'UACC-62 melanoma', '> 75 µM'),
  ('CC(=O)O[C@H](C[C@H](C(C)C)N(C)C(=O)[C@@H](NC(=O)[C@H]1CCCCN1C)C(C)C)c1nc(C(=O)N[C@@H](Cc2ccccc2)C[C@H](C)C(=O)O)c(C)s1', 'UACC-62 melanoma', '> 25 µM'),
  ('CCOC(=O)Cc1ccc(Nc2nc3cc(C(F)(F)F)ccc3nc2C(=O)OCC)cc1', 'UACC-62 melanoma', '> 100 µM'),
  ('COc1ccc(-c2oc3c(CC(=O)O)cccc3c(=O)c2OC)cc1', 'UACC-62 melanoma', '> 100 µM'),
  ('CC(C)(C)CN1[C@@H]2CCCC[C@H]2N(CC(C)(C)C)P1(=O)Cc1ccccc1', 'UACC-62 melanoma', '22.5 µM'),
  ('COc1ccccc1C1C2=C(COC2=O)OC(C)(C)Oc2cc3c(cc21)OCO3 (stereo not drawn)', 'UACC-62 melanoma', '> 25.4 µM'),
  ('COC(=O)c1cc(C#N)[nH]c1-c1ccsc1', 'UACC-62 melanoma', '> 100 µM'),
  ('NC(=S)SCCC(=O)O', 'UACC-62 melanoma', '> 100 µM'),
  ('Cc1c(O)c(OC2OC(CO)C(O)C(O)C2O)cc2c1CC[C@@H]1C2(C)C(=O)C[C@]2(C)[C@@H]([C@@](C)(O)C(O)/C=C/C(C)(C)O)[C@H](O)C[C@@]12C (stereo partly drawn)', 'UACC-62 melanoma', '> 100 µM'),
  ('Nc1ccccc1NC(=O)c1ccc(CSc2nc(N3CCOCC3)c3cccn3n2)cc1', 'UACC-62 melanoma', '2.82 µM'),
  ('O=C(OCc1ccccc1)N1CCNCCNCC1', 'UACC-62 melanoma', '> 100 µM'),
  ('COC(=O)c1ccccc1C1CN=NC12Cc1c(C)cc(C)cc1C2=O (stereo not drawn)', 'UACC-62 melanoma', '> 100 µM'),
  ('O=[N+]([O-])C(/C(Cl)=C(/Cl)N1CCCCC1)=C1\NCCO1', 'UACC-62 melanoma', '> 100 µM'),
  ('C1COC2SC3=C(SC(=C4SC5=C(SCCS5)S4)S3)SC2O1 (stereo not drawn)', 'UACC-62 melanoma', '> 100 µM');

----------
test system: SF-539 CNS; experiment: NCI tumour cell line growth inhibition, 48 h
Mark no (0) for TGI values under 30 µM, and yes (1) for everything at or above.

INSERT INTO results (compound, class_assignment) VALUES
  ('C[C@]12CC[C@@H]3c4ccc(OC(=O)c5ccccc5)cc4CC[C@H]3[C@@H]1CCC2OC(=O)c1cccc2c(=O)c3ccccc3[nH]c12 (some centres undefined)', 'yes (1)'),
  ('CCCCCCCC1c2cc3[nH]c(cc4nc(cc5[nH]c(cc(n2)[C@@]1(C)CC(=O)N(C)C)c(C)c5CCC(=O)O)C(CCC(=O)O)=C4C)cc3C (some centres undefined)', 'yes (1)'),
  ('COc1cc(C(=O)C/C(CCC(=O)Nc2ccccc2[N+](=O)[O-])=N\NC(=O)C(N)=O)ccc1O', 'yes (1)'),
  ('O=C1CCC(=O)N1CNc1ccc2c(c1)Sc1ccccc1O2', 'yes (1)'),
  ('COC(=O)C1=CC(O)CCC1c1ccc(OC)cc1 (centres undefined)', 'yes (1)'),
  ('CC1=CC2=C(OCO1)C(=O)c1ccccc1C2=O', 'no (0)'),
  ('COc1ccc(OC)c(/C=C/c2nnc(Nc3ccc(Cl)cc3)o2)c1', 'yes (1)'),
  ('O=C(O)c1ccc(Nc2ccnc3cc(Cl)ccc23)cc1O', 'yes (1)'),
  ('C=C(Cl)C(C)(Cl)CCC(Cl)C(C)(C)Cl (centres undefined)', 'yes (1)'),
  ('CCOC(=O)[C@H](CSSc1ncnc2cc[nH]c12)NC(=O)[C@@H](C)c1ccc2cc(OC)ccc2c1', 'yes (1)'),
  ('Nn1c(CCCl)nc2c(Br)cc(Br)cc2c1=O', 'yes (1)'),
  ('CC(C)(Cl)CCC1=C(Cl)C(=O)c2ccccc2C1=O', 'no (0)'),
  ('O=C(Sc1c(-c2ccccc2)c(=O)n(-c2ccccc2)c(=S)n1-c1ccccc1)c1ccc(Cl)cc1', 'yes (1)'),
  ('OCCN1CCN(CCO)Cc2ccccc2OCCOc2ccccc2C1', 'yes (1)'),
  ('COC(=O)c1cc(C)ccc1/C=C1\Cc2cc(C)c(C)cc2C1=O', 'yes (1)'),
  ('CC1CCCOc2ccc(cc2)C=Nc2ccc(cc2)CCc2ccc(cc2)N=Cc2ccc(cc2)OCCC1 (centres undefined)', 'yes (1)'),
  ('CC(=O)O[C@H]1C(=O)[C@@]2(C)C(C(OC(=O)c3ccccc3)[C@]3(O)CC(OC(=O)C(O)C(NC(=O)c4ccccc4)c4ccc(F)cc4)C(C)=C1C3(C)C)[C@]1(OC(C)=O)CO[C@@H]1C[C@@H]2O (some centres undefined)', 'no (0)'),
  ('NC(=S)SCCC(=O)O', 'yes (1)');

----------
tested on: SF-268 CNS; experiment: NCI tumour cell line growth inhibition, 48 h
In this section, each of the compounds is paired with its reported TGI.
reported property: TGI (µM)

INSERT INTO assay_data (compound, assayed_system, reported_property, units_text, bound_type, result) VALUES
  ('c1ccc(COCC23CCN(Cc4ccccc4)C(CC(OCc4ccccc4)C2)S3)cc1 (configuration not stated)', 'SF-268 CNS', 'TGI', 'µM', '>', 100),
  ('COC(=O)c1cc(NC2OCC(OC(C)=O)C(OC(C)=O)C2OC(C)=O)nc(SC)c1C(=O)OC (configuration not stated)', 'SF-268 CNS', 'TGI', 'µM', '>', 100),
  ('CCN(Cc1ccc(F)cc1)c1ccc(CO)c(Cl)c1', 'SF-268 CNS', 'TGI', 'µM', '>', 55.7),
  ('CN(C)CCOc1cc2c(c3ccccc13)-c1ccccc1C2=O', 'SF-268 CNS', 'TGI', 'µM', '=', 3.24),
  ('COc1cc(CC2CCc3nc(N)nc(N)c3C2)cc(OC)c1OC (configuration not stated)', 'SF-268 CNS', 'TGI', 'µM', '=', 13.4),
  ('COC(=O)CCc1ccc2c(c1)CCC2', 'SF-268 CNS', 'TGI', 'µM', '>', 100),
  ('COc1cc2c(c(OC)c1OC)-c1ccc(OC)c(=O)cc1[C@@H](NC(=O)CCl)CC2', 'SF-268 CNS', 'TGI', 'µM', '=', 3.53);

----------
tested on: SK-MEL-28 melanoma; assay: NCI tumour cell line growth inhibition, 48 h
reported property: GI50

INSERT INTO results (smiles_structure, assayed_system, reported_property, result) VALUES
  ('CCCCCCN(CCCCCC)C(=N)c1ccnc2ccccc12', 'SK-MEL-28 melanoma', 'GI50', '3130 nM'),
  ('Nc1ncc(-c2cnn(C3CCNCC3)c2)cc1-c1nc2ccccc2o1', 'SK-MEL-28 melanoma', 'GI50', '1740 nM'),
  ('O=S(=O)(/C=C/C=C/S(=O)(=O)c1ccccc1)c1ccccc1', 'SK-MEL-28 melanoma', 'GI50', '2490 nM'),
  ('Nc1ccccc1NC(=O)c1ccc(CSc2nc(N3CCOCC3)c3cccn3n2)cc1', 'SK-MEL-28 melanoma', 'GI50', '1000 nM'),
  ('O=c1oc2ccc(Cl)cc2c(=O)n1-c1ccc(Cl)cc1F', 'SK-MEL-28 melanoma', 'GI50', '379 nM'),
  ('COc1cc2[nH]c(C(=O)c3cc(OC)c(OC)c(OC)c3)c(N)c2cc1C#CCO', 'SK-MEL-28 melanoma', 'GI50', '896 nM'),
  ('O=C1C(=O)c2cc([N+](=O)[O-])ccc2-c2ccccc21', 'SK-MEL-28 melanoma', 'GI50', '1730 nM'),
  ('CS(=O)(=O)c1ccc(N/N=C/c2c(-c3ccc(S(C)(=O)=O)cc3)[nH]c3ccc(F)cc23)cc1', 'SK-MEL-28 melanoma', 'GI50', '1590 nM'),
  ('COc1cccc(-c2nn(-c3ccccc3)cc2-c2ccnc(NCCNS(=O)(=O)c3ccc(C(F)(F)F)cc3)c2)c1', 'SK-MEL-28 melanoma', 'GI50', '5660 nM'),
  ('CCCCCCCCCCCCCOC(=O)c1c(C)[nH]c(/C=C2\N=C(c3ccc[nH]3)C=C2OC)c1C', 'SK-MEL-28 melanoma', 'GI50', '994 nM'),
  ('COc1cc(N2CCC(N3CCN(C)CC3)CC2)ccc1Nc1ncc(Cl)c(Nc2ccccc2P(C)(C)=O)n1', 'SK-MEL-28 melanoma', 'GI50', '18500 nM'),
  ('CCOC(=O)[C@H](CSSc1ncnc2cc[nH]c12)NC(=O)[C@@H](C)c1ccc2cc(OC)ccc2c1', 'SK-MEL-28 melanoma', 'GI50', '13800 nM');
